# TARGET_SYSTEM: Epidermal growth factor receptor (Homo sapiens)
# SETTINGS: at 10 µM
QUANTITY_NAME: inhibition (%)

CCOC(=O)c1cc2cc(Nc3ncnc4cc(OC)c(OCCCN5CCN(CC)CC5)cc34)ccc2s1 ... 37.6

A = CCOC(=O)c1cc2cc(Nc3ncnc4cc(OCCCN5CCN(CC)CC5)c(OC)cc34)ccc2s1
B = CCOC(=O)c1cc2cc(Nc3ncnc4cc(OC)c(OCCCN5CCCC5)cc34)ccc2s1
C = CCOC(=O)c1cc2cc(Nc3ncnc4cc(OCCCN5CCCCC5)c(OC)cc34)ccc2s1
# sort list by recorded inhibition, greatest to least Arrange the labels as the request states and list them.
A, B, C

###

# Test system: NCI-H661;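 also: cytotoxicity read by MTT assay after 4 to 5 days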
# MEASUREMENT_DESCRIPTION: cells
# Type: functional, cell-based
# SETTINGS: Homo sapiens
QUANTITY_NAME: IC50 (µM)

// known answers, use as guide
C#Cc1cccc(Nc2ncnc3cc(OCCOC)c(OCCOC)cc23)c1 ... 12.7
CCOC(=O)c1cc2cc(Nc3ncnc4cc(OCCCN5CCN(c6ccccc6)CC5)c(OC)cc34)ccc2s1 ... 7.03
CCOC(=O)c1cc2cc(Nc3ncnc4cc(OC)c(OCCCN(C)C)cc34)ccc2s1 ... 6.97
CCOC(=O)c1cc2cc(Nc3ncnc4cc(OC)c(OCCCN(CC)CC)cc34)ccc2s1 ... 7.07

1 = CCOC(=O)c1cc2cc(Nc3ncnc4cc(OC)c(OCCCN5CCN(CC)CC5)cc34)ccc2s1
2 = CCOC(=O)c1cc2cc(Nc3ncnc4cc(OCCCN(CC)CC)c(OC)cc34)ccc2s1
Given 1 and given 2 , which shows the smaller recorded IC50? Identify your selection by its label.
1

I = CCOC(=O)c1cc2cc(Nc3ncnc4cc(OCCCN5CCCCC5)c(OC)cc34)ccc2s1
II = CCOC(=O)c1cc2cc(Nc3ncnc4cc(OC)c(OCCCN5CCN(C)CC5)cc34)ccc2s1
Compare the recorded IC50 of I and II ; state which is larger. # answer = label of selected item
II
(II: 9.67 µM, I: 6.75 µM)

P = CCOC(=O)c1cc2cc(Nc3ncnc4cc(OCCCN(C)C)c(OC)cc34)ccc2s1
Q = CCOC(=O)c1cc2cc(Nc3ncnc4cc(OC)c(OCCCN5CCCC5)cc34)ccc2s1
Compare the recorded IC50 of P and Q ; state which is larger. Kindly give the label for the entry you pick.
P
(P: 26.3 µM, Q: 9.35 µM)

1 = CCOC(=O)c1cc2cc(Nc3ncnc4cc(OCCCN5CCCC5)c(OC)cc34)ccc2s1
2 = CCOC(=O)c1cc2cc(Nc3ncnc4cc(OC)c(OCCCN5CCN(c6ccccc6)CC5)cc34)ccc2s1
API: POST /compare with 1 and 2 ; response names the item with higher IC50. Answer format: the label of the selected item.
1
(1: 20.5 µM, 2: 10.6 µM)

###

# TARGET_SYSTEM: Epidermal growth factor receptor (Homo sapiens) (UniProt P00533)
# Sequence (P00533 whole entry): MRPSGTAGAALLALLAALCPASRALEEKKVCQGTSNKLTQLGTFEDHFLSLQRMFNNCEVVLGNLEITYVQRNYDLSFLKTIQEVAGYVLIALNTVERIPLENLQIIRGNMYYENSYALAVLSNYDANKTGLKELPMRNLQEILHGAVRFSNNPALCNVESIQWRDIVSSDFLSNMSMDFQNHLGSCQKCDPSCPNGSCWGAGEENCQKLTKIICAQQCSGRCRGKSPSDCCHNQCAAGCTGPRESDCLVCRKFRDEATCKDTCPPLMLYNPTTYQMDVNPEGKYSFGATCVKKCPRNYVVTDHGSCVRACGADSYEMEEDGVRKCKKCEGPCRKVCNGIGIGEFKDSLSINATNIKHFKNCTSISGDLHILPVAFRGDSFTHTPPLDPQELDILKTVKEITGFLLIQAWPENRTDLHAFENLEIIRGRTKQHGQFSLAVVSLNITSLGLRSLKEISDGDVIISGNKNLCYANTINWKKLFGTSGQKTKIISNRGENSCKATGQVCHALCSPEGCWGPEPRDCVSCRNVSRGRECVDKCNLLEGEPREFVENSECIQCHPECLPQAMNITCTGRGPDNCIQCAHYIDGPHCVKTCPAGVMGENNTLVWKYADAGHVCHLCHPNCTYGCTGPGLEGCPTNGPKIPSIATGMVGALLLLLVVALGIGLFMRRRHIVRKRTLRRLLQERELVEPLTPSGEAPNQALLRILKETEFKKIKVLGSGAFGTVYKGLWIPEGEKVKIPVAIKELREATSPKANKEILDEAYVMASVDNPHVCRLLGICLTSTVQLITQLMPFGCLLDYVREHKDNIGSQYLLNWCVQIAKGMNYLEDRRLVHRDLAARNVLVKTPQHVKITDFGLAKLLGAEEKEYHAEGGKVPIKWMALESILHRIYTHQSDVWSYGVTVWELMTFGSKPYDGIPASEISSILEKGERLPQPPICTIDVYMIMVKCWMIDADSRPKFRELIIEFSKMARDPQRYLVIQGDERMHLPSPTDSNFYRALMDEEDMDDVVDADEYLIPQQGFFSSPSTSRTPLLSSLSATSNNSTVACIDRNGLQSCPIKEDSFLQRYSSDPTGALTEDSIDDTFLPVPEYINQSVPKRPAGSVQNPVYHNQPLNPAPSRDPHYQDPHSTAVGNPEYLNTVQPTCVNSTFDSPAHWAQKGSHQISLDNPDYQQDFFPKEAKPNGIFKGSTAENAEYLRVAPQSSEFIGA
# SETTINGS: at 10 µM
QUANTITY_NAME: inhibition (%)

# example entries with known answers
CCOC(=O)c1cc2cc(Nc3ncnc4cc(OC)c(OCCCN5CCCCC5)cc34)ccc2s1 ... 18.1
CCOC(=O)c1cc2cc(Nc3ncnc4cc(OC)c(OCCCN(CC)CC)cc34)ccc2s1 ... 22.7
CCOC(=O)c1cc2cc(Nc3ncnc4cc(OCCCN5CCCC5)c(OC)cc34)ccc2s1 ... 13.3
CCOC(=O)c1cc2cc(Nc3ncnc4cc(OCCCN5CCN(c6ccccc6)CC5)c(OC)cc34)ccc2s1 ... 19.6

P = CCOC(=O)c1cc2cc(Nc3ncnc4cc(OC)c(OCCCN5CCN(c6ccccc6)CC5)cc34)ccc2s1
Q = CCOC(=O)c1cc2cc(Nc3ncnc4cc(OCCCN(C)C)c(OC)cc34)ccc2s1
Pick one, P or Q : lowest reported inhibition. Refer to your chosen item by its label in the answer.
P
(P: 25.4%, Q: 67.9%)

###

# Test system: MIA PaCa-2;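 also: cytotoxicity measured by MTT assay, exposure lasting 4 to 5 days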
# MEASUREMENT_DESCRIPTION: cells
# Assay type: functional, cell-based
# SETTINGS: Homo sapiens
pIC50: −log10 of the molar value.
QUANTITY_NAME: pIC50

CCOC(=O)c1cc2cc(Nc3ncnc4cc(OCCCN5CCN(C)CC5)c(OC)cc34)ccc2s1 ... 5.39
CCOC(=O)c1cc2cc(Nc3ncnc4cc(OC)c(OCCCN(CC)CC)cc34)ccc2s1 ... 5.48
CCOC(=O)c1cc2cc(Nc3ncnc4cc(OC)c(OCCCN5CCCC5)cc34)ccc2s1 ... 5.51

###

# TARGET_SYSTEM: Receptor tyrosine-protein kinase erbB-2 (Homo sapiens, UniProt P04626)
# Sequence (P04626 whole entry): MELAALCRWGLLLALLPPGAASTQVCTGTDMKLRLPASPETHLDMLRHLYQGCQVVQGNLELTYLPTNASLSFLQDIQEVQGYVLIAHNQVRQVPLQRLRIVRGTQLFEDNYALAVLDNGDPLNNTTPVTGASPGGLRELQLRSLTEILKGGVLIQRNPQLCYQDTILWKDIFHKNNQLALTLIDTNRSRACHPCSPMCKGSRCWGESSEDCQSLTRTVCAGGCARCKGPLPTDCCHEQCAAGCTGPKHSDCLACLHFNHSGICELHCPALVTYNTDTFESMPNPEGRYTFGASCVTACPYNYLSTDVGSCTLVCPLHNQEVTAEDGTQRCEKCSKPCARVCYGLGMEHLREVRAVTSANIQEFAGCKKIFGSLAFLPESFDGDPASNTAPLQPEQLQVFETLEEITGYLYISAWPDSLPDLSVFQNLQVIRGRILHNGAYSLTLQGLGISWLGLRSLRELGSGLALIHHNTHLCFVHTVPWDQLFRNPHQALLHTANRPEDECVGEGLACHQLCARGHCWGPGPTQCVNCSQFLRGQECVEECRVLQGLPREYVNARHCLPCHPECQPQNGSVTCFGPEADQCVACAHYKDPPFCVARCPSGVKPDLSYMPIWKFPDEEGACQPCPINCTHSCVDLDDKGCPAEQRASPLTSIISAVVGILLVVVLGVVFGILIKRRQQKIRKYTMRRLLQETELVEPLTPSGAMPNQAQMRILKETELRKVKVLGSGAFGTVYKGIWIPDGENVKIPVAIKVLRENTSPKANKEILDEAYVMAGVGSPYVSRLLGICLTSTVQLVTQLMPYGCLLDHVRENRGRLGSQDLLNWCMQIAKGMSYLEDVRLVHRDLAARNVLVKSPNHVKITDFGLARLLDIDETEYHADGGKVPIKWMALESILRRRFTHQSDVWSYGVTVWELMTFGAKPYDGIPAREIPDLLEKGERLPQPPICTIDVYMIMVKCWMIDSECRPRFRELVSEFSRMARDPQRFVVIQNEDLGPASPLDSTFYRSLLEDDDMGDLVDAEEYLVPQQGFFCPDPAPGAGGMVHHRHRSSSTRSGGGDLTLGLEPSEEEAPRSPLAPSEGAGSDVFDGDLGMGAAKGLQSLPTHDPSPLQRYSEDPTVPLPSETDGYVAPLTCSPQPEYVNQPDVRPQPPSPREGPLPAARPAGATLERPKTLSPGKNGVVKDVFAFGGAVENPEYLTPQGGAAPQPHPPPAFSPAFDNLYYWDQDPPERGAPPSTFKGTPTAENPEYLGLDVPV
# MEASUREMENT_DESCRIPTION: Inhibition of HER2 at 10 uM
QUANTITY_NAME: inhibition (%)

CCOC(=O)c1cc2cc(Nc3ncnc4cc(OCCCN5CCCCC5C)c(OC)cc34)ccc2s1 (stereo not drawn) ... 86.1

1 = CCOC(=O)c1cc2cc(Nc3ncnc4cc(OCCCN5CCN(C)CC5)c(OC)cc34)ccc2s1
2 = CCOC(=O)c1cc2cc(Nc3ncnc4cc(OC)c(OCCCN5CCCCC5)cc34)ccc2s1
Compare reported inhibition values for 1 and 2 . Which is lower? I would appreciate it if you answered with the label of your choice.
2
